The reported measurements were obtained from paper PMC8512562.

Test system: M. tuberculosis H37Ra, M. aurum and M. smegmatis
Method Notes: Antimycobacterial screening, MICs stated over all studied strains
Format: cell-based, Mycobacterium
Test Settings: range over M. tuberculosis H37Ra, M. aurum, M. smegmatis; read-out: MICs against all studied strains
Would you kindly list MIC for each of these compounds?

The compound COc1ccc2c3c1O[C@H]1C[C@@H](OC(=O)c4ccc(C(C)(C)C)cc4)C=C[C@@]31CCN(C)C2 showed MIC equal to 3.12 to 7.81 µg/mL

The compound CCOc1cc(OCC)cc(C(=O)O[C@H]2C=C[C@@]34CCN(C)Cc5ccc(OC)c(c53)O[C@H]4C2)c1 showed MIC equal to 3.91 to 15.6 µg/mL

The compound O=C(O[C@@H]1C=C[C@]23CCN(Cc4cc5c(cc42)OCO5)[C@H]3C1)c1cccc2ccccc12 showed MIC equal to 3.91 to 7.81 µg/mL

The compound COC1CC2C(=CC1OC(=O)c1cccc3ccccc13)C1CN2Cc2cc3c(cc21)OCO3 (stereo not shown) showed MIC equal to 3.91 µg/mL

The compound COc1ccc2c3c1O[C@H]1C[C@@H](OC(=O)c4cccc5ccccc45)C=C[C@@]31CCN(C)C2 showed MIC equal to 6.25 to 7.81 µg/mL

The compound COc1ccc2c3c1O[C@H]1C[C@@H](OC(=O)c4ccc5ccccc5c4)C=C[C@@]31CCN(C)C2 showed MIC equal to 1.98 to 7.81 µg/mL

The compound COc1cc2c(cc1OC)[C@@]13C=C[C@@H](OC(=O)c4cccc5ccccc45)C[C@@H]1N(CC3)C2 showed MIC equal to 3.91 to 15.6 µg/mL

The compound O=C(O[C@@H]1C=C[C@]23CCN(Cc4cc5c(cc42)OCO5)[C@H]3C1)c1ccc2ccccc2c1 showed MIC equal to 3.91 to 7.81 µg/mL

The compound CCCCc1ccc(C(=O)O[C@H]2C=C[C@@]34CCN(C)Cc5ccc(OC)c(c53)O[C@H]4C2)cc1 showed MIC equal to 1.56 to 7.81 µg/mL

The compound COc1cc2c(cc1OC)[C@@]13C=C[C@@H](OC(=O)c4cc(C)cc(C)c4)C[C@@H]1N(CC3)C2 showed MIC equal to 3.91 to 15.6 µg/mL

* * *

Would you kindly list MIC for each of these molecules?
Test system: Mycobacterium tuberculosis H37Ra
Method Notes: Antimycobacterial screening (microdilution broth, resazurin) against M. tuberculosis H37Ra
Assay type: cell-based
Test Settings: Mycobacterium tuberculosis; M. tuberculosis H37Ra; resazurin added after 120 h; read-out: MIC Mtb H37Ra
Form entry: value (µg/mL) — number only.

The recorded MIC with Mycobacterium tuberculosis H37Ra for COc1ccc2c3c1O[C@H]1C[C@@H](OC(=O)c4ccc(C)cc4)C=C[C@@]31CCN(C)C2 was 15.6

The recorded MIC with Mycobacterium tuberculosis H37Ra for COc1cc2c(cc1OC)[C@@]13C=C[C@@H](OC(=O)c4cccc5ccccc45)C[C@@H]1N(CC3)C2 was 7.81

* * *

System: Mycobacterium tuberculosis H37Ra
Method Notes: Antimycobacterial screening (microdilution broth, resazurin) against M. tuberculosis H37Ra
Assay type: cell-based
Test Settings: Mycobacterium tuberculosis, H37RA, read-out: MIC Mtb H37Ra (µM)
Would you kindly list MIC for each of these compounds?
Form entry: value (µM) — number only.

The compound COc1ccccc1C(=O)O[C@H]1C=C[C@@]23CCN(C)Cc4ccc(OC)c(c42)O[C@H]3C1 showed MIC equal to 148

The compound COc1ccc2c3c1O[C@H]1C[C@@H](OC(=O)c4ccccc4)C=C[C@@]31CCN(C)C2 showed MIC equal to 79.8
